// melting point lookup, one value per entry
measure: melting point

compound: CCC1C2C(C(=O)N1Cc1ccc3c(c1)OCO3)C(c1ccc(C#N)cc1)N1CCCC21 (centres undefined)
result: 150 to 151 °C
//
compound: Nc1ccc(-c2noc(-c3cnn4c(C(F)F)cc(-c5ccc(C(F)(F)F)c(OCC(F)(F)F)c5)nc34)n2)cn1
result: 285 °C
//
compound: Clc1ccc2c(NCc3ccccc3)nc(-n3ccnc3)nc2c1
result: 265 to 268 °C
//
compound: CC(C)SN1N=C(c2cccc([N+](=O)[O-])c2)C(SC(C)C)(SC(C)C)C1=O
result: 73 to 74 °C
//
compound: O=C1CCC2=C(CCc3cc(Br)ccc32)N1
result: 227 to 228 °C
//
compound: O=C(NCc1ccc(Cl)cc1)c1cn(CCCOC2CCCCO2)c2c(F)cc(CO)cc2c1=O (centres undefined)
result: 148 to 150 °C
//
compound: O=C(C=Cc1ccncc1)c1ccc([N+](=O)[O-])cc1
result: 218 to 221 °C
//
compound: COC(=O)c1ccccc1-n1c(CCl)nc2ccc(Br)cc2c1=O
result: 235 to 237 °C
//
compound: Cc1onc(NS(=O)(=O)c2ccccc2-c2ccc(-c3ncccn3)cc2CN2CCC(C)(C)C2=O)c1C
result: 125 to 132 °C

* * *

Measured melting point by item

compound: O=C1CCC(c2ccc(N=Cc3ccc(C(F)(F)F)cc3)cc2)=NN1
melting point: 245 to 247 °C

compound: CN1CCN(c2cccc3ccc(Nc4ccccc4[N+](=O)[O-])cc23)CC1
melting point: 87 to 94 °C

compound: Cc1ccc(O)c(Cn2c(NCCCN3CCOCC3)nc3ccc(CNc4c(C)cc(CCC#N)cc4C)cc32)n1
melting point: 114 °C

compound: O=C(OCCN1CCCC1)c1ccccc1Nc1ccnc2cc(Cl)ccc12
melting point: 102 to 104 °C

compound: CC1=C(C(=O)OCC(Cl)(Cl)Cl)N2C(=O)C(NC(=O)Cc3ccccc3)C2SC1 (stereo not given)
melting point: 162 °C

* * *

molecule: Cc1cc(-n2ccc(OCc3ccc(C(F)(F)F)cc3)cc2=O)sc1C(=O)NCc1ccccc1
melting point: 225 to 227 °C
//
molecule: COC(=O)N1CCN(Cc2nc(-c3ccc4c(c3)Nc3ccccc3S4)cs2)CC1
melting point: 180 to 182 °C
//
molecule: Cc1ccc(Cc2cnc(NCCCNc3ccc(C#N)cn3)[nH]c2=O)cn1
melting point: 175 to 177 °C
//
molecule: CSP(=S)(C1CCCCC1)C1CCCCC1
melting point: 75 to 75.5 °C
//
molecule: CC(C)n1c(C=CC=O)c(-c2ccc(F)cc2)c(-c2ccc(F)cc2)c1C=CC=O
melting point: 207 °C
//
molecule: Nc1cc(C(F)(F)F)c(Br)cc1S(=O)(=O)c1ccccc1
melting point: 169 to 171 °C
//
molecule: N#Cc1ccc(CN2C(=O)C3CCCC3N(C(=O)CN3C(=O)c4ccccc4C3=O)c3ccccc32)cc1 (centres undefined)
melting point: 222 to 224 °C
//
molecule: Nc1ncnc2c1c(-c1ccc(Oc3ccccc3)cc1)cn2CCN1C(=O)c2ccccc2C1=O
melting point: 111 to 112 °C
//
molecule: OC1CC(c2ccccc2)C(c2ccccc2)(c2ccc(OCCN3CCOCC3)cc2)O1 (centres undefined)
melting point: 150 to 153 °C
//
molecule: O=C1C=C/C(=C/c2ccc(C(F)(F)F)cc2)O1
melting point: 92 to 94 °C
//
molecule: COc1c(C)cc([N+](=O)[O-])cc1C(=S)N(C)C
melting point: 138 to 139 °C
//
molecule: CC(C)=CCC/C(C)=C/COCC(=O)c1cc(C(C)(C)C)c(O)c(C(C)(C)C)c1
melting point: 50 °C
//
molecule: Cc1ccccc1C1CCN(C2CCCCC2O)CC1 (single isomer, unassigned; (-))
melting point: 116 to 118 °C
//
molecule: CCCc1nc(C(C)(C)O)c(C(=O)OCOC(=O)C(C)(C)C)n1Cc1ccc(-c2ccccc2C(=O)O)cc1
melting point: 170 to 173 °C
//
molecule: CCc1ccc2nc(Cl)nc(Nc3ccccc3C)c2c1
melting point: 177 to 179 °C
//
molecule: CCOCCOc1ccccc1-c1cc(=O)c2cc(C(=O)O)ccc2o1
melting point: 198 to 200 °C
//
molecule: C[C@H](CSC(=O)c1ccc(Cl)c(S(N)(=O)=O)c1)C(=O)N1CCC[C@H]1C(=O)O
melting point: 143 to 146 °C
//
molecule: CC(=O)NC1=NN(c2ccccc2)C(C)C1 (centres undefined)
melting point: 144 to 146 °C
//
molecule: CCn1ncc2c(Cl)c3c(nc21)C(O)c1ccccc1CC3 (centres undefined)
melting point: 128 to 130 °C

* * *

# melting point listing for each entry below

compound: CNCC(=O)N1c2ccccc2N2CCc3cccc(c32)C1C (stereo unspecified)
melting point: 106 to 110 °C

compound: NCCc1c(C(=O)O)[nH]c2ccc(Br)cc12
melting point: 248 to 249 °C

compound: O=c1oc(-c2ccccc2)cc(O)c1SCc1cccc(Oc2ccccc2)c1
melting point: 131 to 133 °C

compound: CSC(C)(C)C(NS(=O)(=O)c1ccc(Oc2ccccc2)cc1)C(=O)O (stereo unspecified)
melting point: 156 to 158 °C

compound: CC(C)(C)CC(C)(C)c1cc(CO)c(O)c(CO)c1
melting point: 76 to 77 °C

compound: O=c1ccc(C(c2ccccc2)c2ccccc2)c[nH]1
melting point: 174 to 176 °C

compound: O=c1[nH]c2ccccc2n1CCN1CCC(Nc2nc3cccnc3n2CCOCCO)CC1
melting point: 177 °C

compound: COc1cc(OC)c2c(C)c(CCN3CCN(c4ccccc4OC)CC3)c(=O)oc2c1
melting point: 140 to 142 °C

compound: CC(NC(=O)c1cc(Cl)ccc1[N+](=O)[O-])C1CC1 (stereo unspecified)
melting point: 137 to 141 °C

compound: O=C(O)Cc1ccc(O)c(Cl)c1Cl
melting point: 105 to 106 °C

compound: C#Cc1cc(-c2cccs2)c(OC)cc1OC
melting point: 141 to 142 °C

* * *

Binary classification by melting point, with 200 °C as an inclusive lower bound for rule met; all other cases are rule not met.

molecule: N#Cc1ccc(-c2ccc(F)cc2)nc1Cl
answer.label: rule not met
--
molecule: CC(C)(C)c1ccc(C(O)(c2ccccc2)c2ncc[nH]2)cc1 (stereo unspecified)
answer.label: rule not met
--
molecule: N#Cc1cc(Br)c(NC(=O)NC(=O)c2c(F)cccc2F)cc1Cl
answer.label: rule met
--
molecule: N#Cc1ccc(-c2nc(=O)c3ccccc3s2)cc1
answer.label: rule met
--
molecule: CCc1c(OC)cc(C2CNC(=O)C2)cc1OC (stereo unspecified)
answer.label: rule not met
--
molecule: CC(C)(C)c1ccc(C(=O)N[C@H]2CC[C@H](CCN3CCN(c4nccc5c4OCC5)CC3)CC2)cc1
answer.label: rule not met
--
molecule: O=C(OC1CCCCO1)C(c1ccccc1)(c1ccccc1)c1ccccc1 (stereo unspecified)
answer.label: rule not met
--
molecule: CCOC(=O)c1cc(-c2csc(-c3ccnc(N(C)C)c3)n2)c(=O)[nH]c1C(C)C
answer.label: rule met
--
molecule: c1coc(-c2cnc3[nH]c4ccccc4c3c2)c1
answer.label: rule met
--
molecule: O=C1CN=C(C2CCCCC2)c2cc(Cl)ccc2N1
answer.label: rule met
--
molecule: O=C(OCCS(=O)(=O)Cc1ccccc1)c1cc(Oc2ccc(C(F)(F)F)cc2Cl)ccc1[N+](=O)[O-]
answer.label: rule not met

* * *

measure: melting point

compound: C=C(C(=O)OCC)c1cc(-c2cc3c(cc2C)C(C)(C)CCC3(C)C)ccc1OCOC
measure: melting point
result: 100 to 101 °C
//
compound: CNCc1cnc(Nc2n[nH]c3ccc(-c4ncccc4Cl)cc23)s1
measure: melting point
result: 200 to 201 °C
//
compound: OC(c1nc(-c2ccc(F)cc2)c(-c2ccc(F)cc2)[nH]1)(C(F)(F)F)C(F)(F)F
measure: melting point
result: 153 to 155 °C
//
compound: CNC(=O)n1c(NC(=O)c2ccc(NC(=N)N)cc2)nc2ccccc21
measure: melting point
result: 188 to 190 °C
//
compound: CCC(=C1SCCCS1)c1ccc(Oc2ccccc2)cc1
measure: melting point
result: 53 to 54 °C
//
compound: CC(C)Oc1nccc(-c2c(-c3ccc(F)cc3)ncn2C2CCC(O)CC2)n1 (stereo not given)
measure: melting point
result: 208 to 211 °C
//
compound: CC1NC(=O)COC1=O (stereo not given)
measure: melting point
result: 139 to 141 °C
//
compound: CCc1ccccc1NC=C1C(=O)N(c2ccc(NC(C)=O)cc2)N=C1C
measure: melting point
result: 230 °C
//
compound: CCc1nc2c(N)nc3ccccc3c2n1CC1(C(N)=O)CCC1
measure: melting point
result: 227 to 230 °C
//
compound: CCCCc1nc(C)c(CC(=S)N(C)C)c(=O)n1Cc1ccc(-c2ccccc2-c2nnn[nH]2)cc1
measure: melting point
result: 96.8 to 102 °C
